Data credit: PubChem BioAssay AID1159580

PROCEDURE_TEXT: chemical genetic growth profiling, strain panel (AID 1159580);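 also: tested at 20 µM; growth read once vehicle control cultures reached saturation at 30 °C; 1 = growth at the plate median or of vehicle wells; lower values mean less growth of the strain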
TEST_CONDITIONS: S. cerevisiae deletion strains, growth OD, locus YKR026C, strain gcn3
Among all 5,500 compounds or so, about 2,000 (36%) were called active. Roughly 18% stayed inconclusive and do not appear here. Rule as the data show it: active = normalized growth mostly below about 0.91 (no sharp cut-off); inconclusive = no clear call, values can overlap the other calls; inactive = mostly above about 0.92. Some of the results follow.
Please reply with one of these outcomes: active, inactive

Sample answers from the record:
| COMPOUND | CATEGORY_LABEL |
| --- | --- |
| O=C(c1ccccc1)c1ccc2n1CCC2C(=O)O (centres undefined) | inactive |
| CC(C)=CCC/C(C)=C/CO | inactive |
| Cc1cc(O)c2c(c1)C(=O)c1cccc(O)c1C2=O | inactive |

Recorded call for CC(C)CCCC(C)N (centres undefined) ?
inactive

Entry CNC(=O)N(C)c1nnc(C(C)(C)C)s1 please
inactive

====

PROCEDURE_TEXT: chemical genetic growth profiling, strain panel (AID 1159580)
TEST_CONDITIONS: S. cerevisiae deletion strains, growth OD, locus YNL128W, strain TEP1
Screen size: about 5,500 compounds; about 2,000 (36%) were called active. Roughly 18% stayed inconclusive and do not appear here. No stated cut-off is given here; in the data, active means normalized growth mostly below about 0.91 (no sharp cut-off); inconclusive means no clear call, values can overlap the other calls; inactive means mostly above about 0.92. The list shows a part of the results.
Please reply with one of these outcomes: 1 (yes) = active, 0 (no) = inactive

Sample answers from the record:
| MOLECULE | CATEGORY_LABEL |
| --- | --- |
| O=C1c2cccc(O)c2C(=O)c2c(O)cccc21 | 1 (yes) |
| COc1cc(Cc2cnc(N)nc2N)cc(OC)c1OC | 0 (no) |
| O=C(CSCc1c(Cl)cccc1Cl)NNC(=S)NC1CC2C=CC1C2 (configuration not stated) | 1 (yes) |

Recorded call for CC(C)N=C(N)N=C(N)Nc1ccc(Cl)cc1 ?
0 (no)

Entry Cc1ccc(O)c(C(CCN(C(C)C)C(C)C)c2ccccc2)c1 (configuration not stated) please
0 (no)

Entry CC1=C(C(=O)O)N2C(=O)[C@@H](NC(=O)[C@@H](N)c3ccc(O)cc3)[C@H]2SC1 please
0 (no)

====

PROCEDURE_TEXT: chemical genetic growth profiling, strain panel (AID 1159580);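 also: tested at 20 µM; growth read once vehicle control cultures reached saturation at 30 °C; 1 = growth at the plate median or of vehicle wells; lower values mean less growth of the strain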
TEST_CONDITIONS: S. cerevisiae deletion strains, growth OD, locus YGR252W, strain gcn5
Out of some 5,500 compounds screened, about 2,000 (36%) were called active. Another 18% or so got no clear call; they are omitted. No stated cut-off is given here; in the data, active means normalized growth mostly below about 0.91 (no sharp cut-off); inconclusive means no clear call, values can overlap the other calls; inactive means mostly above about 0.92. This is one part of the list.
Please reply with one of these outcomes: true (1) = active, false (0) = inactive

| MOLECULE | CATEGORY_LABEL |
| --- | --- |
| CN1C(=O)CC[C@H]1c1cccnc1 | false (0) |
| CC(C)[C@@H]1CC[C@@H](C)CC1=O | false (0) |
| O=C1C(=O)c2ccccc2C(O)=C1C1CCC(c2ccc(Cl)cc2)CC1 (stereo unspecified) | false (0) |
| CC1(C)CC23C(=O)CCC(O)C2(C)CCC13 (stereo unspecified) | false (0) |
| COc1cc(OC)c2c(OC)c(-c3ccc4c(c3)OCO4)c(=O)oc2c1 | false (0) |
| O=C(O)c1cc(O)c2c(c1)C(=O)c1cc(O)cc(O)c1C2=O | false (0) |

Recorded call for COC(=O)C(O)[C@H]1C(C)(C)[C@@H](OC(C)=O)[C@@H]2CC3=C4CC(=O)O[C@@H](c5ccoc5)[C@]4(C)CCC3[C@@]1(C)C2=O (stereo partly specified) ?
false (0)

Entry O=C1C=CC(=O)c2c(O)cccc21 please
false (0)

Entry Cc1cc(O)c2c(c1)C(=O)c1cccc(O)c1C2=O please
false (0)

Entry O=C1c2cccc(O)c2C(=O)c2c(O)cccc21 please
true (1)

Entry COc1ccc(-c2c(O)c3c(OC)c4c(cc3oc2=O)OC(C)(C)C=C4)cc1 please
false (0)

====

PROCEDURE_TEXT: chemical genetic growth profiling, strain panel (AID 1159580);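 also: tested at 20 µM; growth read once vehicle control cultures reached saturation at 30 °C; 1 = growth at the plate median or of vehicle wells; lower values mean less growth of the strain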
TEST_CONDITIONS: S. cerevisiae deletion strains, growth OD, locus YFR010W, strain ubp6
Hit rate of the full screen: of about 5,500 compounds, about 2,000 (36%) were called active. Another 18% or so got no clear call; they are omitted. Cut-off read from the data, not from the text of the source: active = normalized growth mostly below about 0.91 (no sharp cut-off); inconclusive = no clear call, values can overlap the other calls; inactive = mostly above about 0.92. The list shows a part of the results.
Please reply with one of these outcomes: t (active), f (inactive)

Sample answers from the record:
| MOLECULE | CATEGORY_LABEL |
| --- | --- |
| O=C(O)c1cc(=O)c2ccccc2[nH]1 | f |
| Cn1c(=O)c2c(ncn2C)n(C)c1=O | f |
| CC(=O)NS(=O)(=O)c1ccc(N)cc1 | f |

Recorded call for Oc1cc2c(cc1O)C(c1ccccc1)CNCC2 (configuration not stated) ?
f

Entry COC(=O)C[C@H]1C(C)(C)[C@@H](OC(C)=O)[C@@H]2CC3=C4CC(=O)O[C@@H](c5ccoc5)[C@]4(C)CCC3[C@@]1(C)C2=O (some centres not stated) please
f

Entry CC(=O)c1c(O)cc(O)cc1O please
f

Entry CON please
f

Entry Cn1c(=O)c2c(ncn2CCO)n(C)c1=O please
f

Entry CC1(C)CC23C(=O)CCC(O)C2(C)CCC13 (configuration not stated) please
f

Entry O=C(O)C1=C(CSc2nnnn2CS(=O)(=O)O)CS[C@@H]2C(NC(=O)[C@H](O)c3ccccc3)C(=O)N12 (some centres not stated) please
f

Entry CC(C)=CCC/C(C)=C/CO please
f

Entry COC(=O)CC1C(C)(C(=O)c2ccoc2)CC2OCC34C(CC(=O)OC)C5(C)CC36OC3(C)OC1(C(OC(C)=O)C6(OC(C)=O)C5OC(=O)C(C)C)C24O3 (configuration not stated) please
f

Entry O=C(c1ccccc1)c1ccc2n1CCC2C(=O)O (configuration not stated) please
f

Entry CCCCN(CC)c1c([N+](=O)[O-])cc(C(F)(F)F)cc1[N+](=O)[O-] please
f

Entry CCCN(CCC)c1c([N+](=O)[O-])cc(C(F)(F)F)cc1[N+](=O)[O-] please
f

Entry CC(=O)CCCCn1c(=O)c2c(ncn2C)n(C)c1=O please
f

Entry CC(C)C1CCC(C(=O)N[C@@H](Cc2ccccc2)C(=O)O)CC1 (some centres not stated) please
f

Entry CC[C@H]1OC(=O)[C@H](C)[C@@H](O[C@H]2C[C@@](C)(OC)[C@@H](O)[C@H](C)O2)[C@H](C)[C@@H](O[C@@H]2O[C@H](C)C[C@H](N(C)C)[C@H]2O)[C@](C)(O)C[C@@H](C)/C(=N/OCOCCOC)[C@H](C)[C@@H](O)[C@]1(C)O please
f

Entry C/C(=C\CO)CC[C@H](C)CCC[C@H](C)CCCC(C)C please
t

Entry Cn1cnc2c1c(=O)[nH]c(=O)n2C please
f

Entry COc1ccc(NS(=O)(=O)c2ccc(N)cc2)nn1 please
f

Entry CC(C)CCCC(C)N (configuration not stated) please
f

====

PROCEDURE_TEXT: chemical genetic growth profiling, strain panel (AID 1159580);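 also: tested at 20 µM; growth read once vehicle control cultures reached saturation at 30 °C; 1 = growth at the plate median or of vehicle wells; lower values mean less growth of the strain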
TEST_CONDITIONS: S. cerevisiae deletion strains, growth OD, locus YLR384C, strain iki3, hits give low values
About 2,000 (36%) of roughly 5,500 compounds were called active. Another 18% or so got no clear call; they are omitted. Some of the results follow.
MEASUREMENT_NAME: normalized growth

Answered cases to consult:
| MOLECULE | normalized growth |
| --- | --- |
| COc1cc(OC)c2c(OC)c(-c3ccc4c(c3)OCO4)c(=O)oc2c1 | 0.977 (inactive) |
| Oc1cccc2cccnc12 | 0.0615 (active) |
| COc1ccc(-c2c(O)c3c(OC)c4c(cc3oc2=O)OC(C)(C)C=C4)cc1 | 0.954 (inactive) |
| CC(=O)OC1CCC2(O)CC1(C)CCC1C2CC1(C)C (stereo not drawn) | 1.01 (inactive) |
| Cn1c(=O)[nH]c2nc[nH]c2c1=O | 1 (inactive) |
| O=C(O)CCC(=O)OC[C@@H](NC(=O)C(Cl)Cl)[C@H](O)c1ccc([N+](=O)[O-])cc1 | 0.987 (inactive) |

Item under review: COc1ccccc1OCC(O)COC(N)=O (stereo not drawn) . Reported normalized growth?
0.979 (inactive)

Entry CC(C)[C@@H]1CC[C@@H](C)CC1=O please
1.01 (inactive)

Entry CC(=CC1CCC(C)C2CCC(C)=C12)C(=O)O (stereo not drawn) please
0.926 (inactive)

Entry O=c1c(O)c(-c2ccc(O)cc2)oc2ccccc12 please
0.905 (active)

Entry COc1cc(O)c2c(c1)C(=O)c1cc(C)cc(O)c1C2=O please
0.977 (inactive)

Entry CC(=O)CCCCn1c(=O)c2c(ncn2C)n(C)c1=O please
1.02 (inactive)

Entry CC(=O)c1ccc[nH]1 please
0.997 (inactive)

Entry O=c1c(O)cccc2cc(O)c(O)c(O)c12 please
0.799 (active)

Entry CO/N=C(/C(=O)NC1C(=O)N2C(C(=O)OCOC(=O)C(C)(C)C)=C(/C=C\c3scnc3C)CSC12)c1csc(N)n1 (stereo not drawn) please
1.02 (inactive)

Entry CC(=O)O[C@@H]1C2CC[C@@H]3C1(C[C@@H](O)[C@@]1(O)[C@@H](C[C@H](O)C1(C)C)[C@]3(C)O)C[C@@]2(C)O (stereo partly drawn) please
0.99 (inactive)

Entry Cn1c(=O)c2c(ncn2CCO)n(C)c1=O please
1.01 (inactive)
